target_or_system: UniProtKB P08581
pIC50: −log10 of the molar value.
Criterion: pIC50 meeting or surpassing 7. Met: Fulfilled. Not met: Not fulfilled.

CC(=O)N1CCN(c2cccc(Nc3nccc(Oc4ccc(NC(=O)C5(C(=O)Nc6ccc(F)cc6)CC5)cc4)n3)c2)CC1 [compound 13e]; Fulfilled
O=C(NC1CCCNC1)c1cccc(Nc2nccc(Oc3ccc(NC(=O)C4(C(=O)Nc5ccc(F)cc5)CC4)cc3)n2)c1 (stereo not shown) [compound 13f]; Not fulfilled
O=C(Nc1ccc(F)cc1)C1(C(=O)Nc2ccc(Oc3ccnc(Nc4cn[nH]c4)n3)cc2)CC1 [compound 13c]; Fulfilled

# input Quick check, pIC50 >= 7? CC(=O)N1CCN(c2ccc(Nc3nccc(Oc4ccc(NC(=O)c5c(C)n(C)n(-c6ccccc6)c5=O)cc4)n3)cc2)CC1 [compound 17e]
# output Not fulfilled

# input Assess whether reported pIC50 for COCCN1CCN(CC(=O)Nc2ccc(Nc3nccc(Oc4ccc(NC(=O)C5(C(=O)Nc6ccc(F)cc6)CC5)cc4)n3)cc2)CC1 [compound 13k] sits at 7 or higher.
# output Fulfilled

# input // inclusive: pIC50 at least 7? input: Cc1c(C(=O)Nc2ccc(Oc3ccnc(Nc4ccc(NC(=O)C(C)N5CCN(C)CC5)cc4)n3)cc2)c(=O)n(-c2ccccc2)n1C (stereo not shown) [compound 17h]
# output Fulfilled

* * *

Listed here: compounds with reported IC50 for c-Met kinase (Homo sapiens).
Reply with just the number (in nM).

Worked cases, IC50 given:
CN(C)CCNCC(=O)Nc1ccc(Nc2nccc(Oc3ccc(NC(=O)C4(C(=O)Nc5ccc(F)cc5)CC4)cc3)n2)cc1 [compound 13j]; 48.6
Cc1c(C(=O)Nc2ccc(Oc3ccnc(Nc4ccc(NC(=O)CN5CCN(C)CC5)nc4)n3)cc2)c(=O)n(-c2ccccc2)n1C [compound 17g]; 140
CCN(CC)CCNCC(=O)Nc1ccc(Nc2nccc(Oc3ccc(NC(=O)C4(C(=O)Nc5ccc(F)cc5)CC4)cc3)n2)cc1 [compound 13i]; 88.6
COCCNc1cccc(Nc2nccc(Oc3ccc(NC(=O)C4(C(=O)Nc5ccc(F)cc5)CC4)cc3)n2)c1 [compound 13b]; 25.9
Cc1c(C(=O)Nc2ccc(Oc3ccnc(Nc4ccc(C(=O)N5CCN(C)CC5)cc4)n3)cc2)c(=O)n(-c2ccccc2)n1C [compound 17d]; 137

Turning now to a further record.
# input Under c-Met kinase (Homo sapiens): IC50 value of O=C(Nc1ccc(F)cc1)C1(C(=O)Nc2ccc(Oc3ccnc(Nc4cc(F)cc(F)c4)n3)cc2)CC1 [compound 13d] ?
# output 728

* * *

target_or_system: Mer kinase (Homo sapiens)
Sequence (Q12866 21-999): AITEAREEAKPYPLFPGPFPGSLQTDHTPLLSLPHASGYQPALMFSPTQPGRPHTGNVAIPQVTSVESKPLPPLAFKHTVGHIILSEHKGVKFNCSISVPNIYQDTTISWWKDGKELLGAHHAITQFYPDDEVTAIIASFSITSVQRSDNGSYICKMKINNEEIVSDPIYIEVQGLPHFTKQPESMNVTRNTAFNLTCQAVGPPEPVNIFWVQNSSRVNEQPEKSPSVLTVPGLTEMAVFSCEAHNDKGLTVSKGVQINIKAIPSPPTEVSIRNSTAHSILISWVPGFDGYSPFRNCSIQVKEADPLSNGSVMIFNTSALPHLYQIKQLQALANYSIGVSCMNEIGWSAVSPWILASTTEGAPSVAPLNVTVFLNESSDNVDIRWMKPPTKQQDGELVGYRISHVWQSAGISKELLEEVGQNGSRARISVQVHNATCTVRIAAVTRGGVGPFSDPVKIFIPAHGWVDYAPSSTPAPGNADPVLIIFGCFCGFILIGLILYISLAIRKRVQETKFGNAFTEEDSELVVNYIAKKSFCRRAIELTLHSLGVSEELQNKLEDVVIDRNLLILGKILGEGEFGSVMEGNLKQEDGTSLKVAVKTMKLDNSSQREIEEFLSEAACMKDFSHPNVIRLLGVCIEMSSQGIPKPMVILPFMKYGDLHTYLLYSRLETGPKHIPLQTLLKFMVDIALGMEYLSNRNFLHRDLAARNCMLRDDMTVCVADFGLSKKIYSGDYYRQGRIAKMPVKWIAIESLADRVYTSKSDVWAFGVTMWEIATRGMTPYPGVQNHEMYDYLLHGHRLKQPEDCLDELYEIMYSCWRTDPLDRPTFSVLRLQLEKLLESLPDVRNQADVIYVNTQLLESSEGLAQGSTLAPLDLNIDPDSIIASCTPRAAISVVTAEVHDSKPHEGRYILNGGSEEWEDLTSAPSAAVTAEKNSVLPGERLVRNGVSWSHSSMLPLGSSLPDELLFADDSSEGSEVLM
readout_type: IC50 (nM)
Write the value in nM as a bare number.

See these solved cases before continuing.
COCCNc1cccc(Nc2nccc(Oc3ccc(NC(=O)C4(C(=O)Nc5ccc(F)cc5)CC4)cc3)n2)c1 [compound 13b]; 24.3
COCCNc1cccc(Nc2nccc(Oc3ccc(NC(=O)c4c(C)n(C)n(-c5ccccc5)c4=O)cc3)n2)c1 [compound 17b]; 12.1
CC(=O)N1CCN(c2cccc(Nc3nccc(Oc4ccc(NC(=O)C5(C(=O)Nc6ccc(F)cc6)CC5)cc4)n3)c2)CC1 [compound 13e]; 7.5
CCN(CC)CCNCC(=O)Nc1ccc(Nc2nccc(Oc3ccc(NC(=O)C4(C(=O)Nc5ccc(F)cc5)CC4)cc3)n2)cc1 [compound 13i]; 95.3
CN1CCC(Oc2ccc(Nc3nccc(Oc4ccc(NC(=O)C5(C(=O)Nc6ccc(F)cc6)CC5)cc4)n3)cc2)CC1 [compound 13a]; 21.7

# input Recall the recorded IC50 for O=C(Nc1ccc(F)cc1)C1(C(=O)Nc2ccc(Oc3ccnc(Nc4cc(F)cc(F)c4)n3)cc2)CC1 [compound 13d] with Mer kinase (Homo sapiens) and state it.
# output 640
